- Species on record: Rattus norvegicus
- Test Summary: Open TG-GATES - Regimen: Single
- Type: toxicity, organism-based, Sprague-Dawley
- Parameters: regimen Single, gender Male, age 6 weeks
- Experimental Conditions: in vivo, po, 0 mg/kg, 3 h, tissue Blood, route gavage, dose level Control
Outcome Measure: WBC (x10_2/uL)
Kindly provide the numeric value in x10_2/uL only, without the unit symbol.

>>> endpoint_value("CCCc1cc(=O)[nH]c(=S)[nH]1 [PROPYLTHIOURACIL]")
86.3
>>> endpoint_value("NC1=NC(=O)C(c2ccccc2)O1 (centres undefined) [PEMOLINE]")
87.4
>>> endpoint_value("CCOc1ccc(NC(C)=O)cc1 [PHENACETIN]")
96.3
>>> endpoint_value("Brc1ccccc1 [BROMOBENZENE]")
108.2
>>> endpoint_value("CS(=O)(=O)O.Cc1ccc(NC(=O)c2ccc(CN3CCN(C)CC3)cc2)cc1Nc1nccc(-c2cccnc2)n1 [IMATINIB MESYLATE]")
98.6

Entry Cc1nnc2n1-c1ccc(Cl)cc1C(c1ccccc1Cl)=NC2 [TRIAZOLAM] has what WBC?
96.6

Entry CN1C(=O)CCS(=O)(=O)C1c1ccc(Cl)cc1 (centres undefined) [CHLORMEZANONE] has what WBC?
78.6

Entry O=C(OC[C@H]1O[C@@H](OC(=O)c2cc(O)c(O)c(OC(=O)c3cc(O)c(O)c(O)c3)c2)[C@H](OC(=O)c2cc(O)c(O)c(OC(=O)c3cc(O)c(O)c(O)c3)c2)[C@@H](OC(=O)c2cc(O)c(O)c(OC(=O)c3cc(O)c(O)c(O)c3)c2)[C@@H]1OC(=O)c1cc(O)c(O)c(OC(=O)c2cc(O)c(O)c(O)c2)c1)c1cc(O)c(O)c(OC(=O)c2cc(O)c(O)c(O)c2)c1 [TANNIC ACID] has what WBC?
111

Entry Nc1c2c(nc3ccccc13)CCCC2 [TACRINE] has what WBC?
97
